// IC50 lookup, one value per entry
- TEST_TARGET: full-length human PRMT6 (Flag- and His-tagged) (Homo sapiens, UniProt Q96LA8)
- Sequence (Q96LA8 with tags, fused parts or gaps): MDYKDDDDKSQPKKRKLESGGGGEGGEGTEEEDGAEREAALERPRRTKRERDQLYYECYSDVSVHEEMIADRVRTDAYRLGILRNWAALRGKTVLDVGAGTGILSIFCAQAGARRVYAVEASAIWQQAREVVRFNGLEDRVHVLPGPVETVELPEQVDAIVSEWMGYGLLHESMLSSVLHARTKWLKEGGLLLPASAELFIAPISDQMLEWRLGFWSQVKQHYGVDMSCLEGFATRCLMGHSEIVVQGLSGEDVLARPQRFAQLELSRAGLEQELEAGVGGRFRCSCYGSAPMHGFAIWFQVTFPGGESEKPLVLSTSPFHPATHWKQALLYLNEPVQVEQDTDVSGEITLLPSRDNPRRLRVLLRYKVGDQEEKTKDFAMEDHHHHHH
- PROTOCOL_DESCRIPTION: PRMT6 Biochemical Assay (3H-SAM Flashplate, peptide substrate)
- TEST_PARAMETERS: read-out: Biochemical IC50 PRMT6

Consider the reported IC50 for these compounds:
COMPOUND | IC50
CCN(C(=O)CCC(C)C)[C@H]1CC[C@H](c2n[nH]cc2CN(C)CCNC)CC1 | < 100 nM
CNCCN(C)Cc1c[nH]nc1[C@H]1CC[C@@H](C(=O)N(C)CC(C)C)CC1 | < 100 nM

Q: Retrieve IC50 measured for CNCCN(C)Cc1c[nH]nc1[C@H]1CC[C@H](N(CCCOC)C(=O)CCOc2ccccc2)CC1 and print it.
Ans: < 100 nM

Q: Please indicate IC50 recorded for CCOC[C@@H]1C[C@H](COCC)C[C@H](c2n[nH]cc2CN(C)CCNC)C1
Ans: 1010 to 3000 nM

Q: Provide only the value of recorded IC50 for CNCCN(C)Cc1c[nH]nc1C1CCC(C)CC1 (centres unmarked)
Ans: < 100 nM

----------
- TEST_TARGET: full-length human PRMT6 (Flag- and His-tagged) (Homo sapiens, UniProt Q96LA8)
- PROTOCOL_DESCRIPTION: PRMT6 Biochemical Assay (3H-SAM Flashplate, peptide substrate)
- TEST_PARAMETERS: single experiment or average of multiple experiments; read-out: Biochemical IC50 PRMT6
pIC50: −log10 of the molar value.
MEASURE_NAME: pIC50

[I] CN(CCN)Cc1c[nH]nc1/C=C/c1ccc(C(F)(F)F)cc1 [Compound 18]
[II] CNCCN(C)Cc1c[nH]nc1[C@H]1CC[C@@]2(CC1)CC(=O)N(CC(C)C)C2 [Compound 156]
[III] CCC(=O)N(CC1CCOCC1)[C@H]1CC[C@@H](c2n[nH]cc2CN(C)CCNC)CC1 [Compound 108]
Q: Ascending by pIC50, please. Please respond with the labels ordered as the question requires.
Ans: III, II, I
(III: 6.49, II: 7.24, I: 8.00)

----------
- TEST_TARGET: full-length human PRMT6 (Flag- and His-tagged) (Homo sapiens, UniProt Q96LA8)
- PROTOCOL_DESCRIPTION: PRMT6 Biochemical Assay (3H-SAM Flashplate, peptide substrate)
- TEST_PARAMETERS: single experiment or average of multiple experiments; read-out: Biochemical IC50 PRMT6
Where a name gives a salt, the structure may show the parent alone.
MEASURE_NAME: IC50 (µM)

# annotated cases, reported IC50 shown
COMPOUND | UNIT_SPEC | IC50
CNCCN(C)Cc1c[nH]nc1C1CCC2(CC1)OCCO2 [Compound 177] | µM | 0.113
CNCCN(C)Cc1c[nH]nc1[C@H]1CC[C@]2(CCOC2(C)C)CC1 [Compound 253] | µM | 0.0134
CCC(CC)OC1CCC(c2n[nH]cc2CN(C)CCNC)CC1 (centres unmarked) [Compound 70] | µM | 0.044

[P] CCOCC1CC(COCC)CC(c2n[nH]cc2CN(C)CCNC)C1 (centres unmarked) [Compound 119]
[Q] CNCCN(C)Cc1c[nH]nc1[C@H]1CC[C@H](O)C2(CCCCC2)C1 (racemic) [Compound 184]
[R] COc1cccc(/C=C/c2n[nH]cc2CN(C)CCN)c1 [Compound 17]
Q: Could you please order the items by IC50, going from the lowest number to the highest? # output: labels, in the requested order
Ans: R, Q, P
(R: 0.05 µM, Q: 0.101 µM, P: 2.75 µM)

[A] Cc1ccc(/C=C/c2n[nH]cc2CN(C)CCN)cc1 [Compound 8]
[B] CN(CCN)Cc1c[nH]nc1CCc1ccc(F)cc1 [Compound 23]
Q: Could you check which of A and B has a smaller value for IC50? Write down the label of the entry you select.
Ans: B

[I] CNCCN(C)Cc1c[nH]nc1C1CCC2(CCCCC2)CC1 [Compound 46]
[II] CNCCN(C)Cc1c[nH]nc1/C=C/c1ccc(OC)cc1 [Compound 7]
[III] CNCCN(C)Cc1cnn(C)c1[C@H]1CC[C@@]2(CC1)CC(C)(C)CO2 [Compound 245, trifluoroacetic acid salt]
[IV] CNCCN(C)Cc1c[nH]nc1[C@H]1CC[C@H](C(=O)N(C)CC(C)C)CC1 [Compound 226]
Q: Please list the entries, largest IC50 first. Use the labels to give the ranking in the order requested.
Ans: III, IV, II, I

----------
- TEST_TARGET: full-length human PRMT6 (Flag- and His-tagged) (Homo sapiens, UniProt Q96LA8)
- PROTOCOL_DESCRIPTION: PRMT6 Biochemical Assay (3H-SAM Flashplate, peptide substrate)
- TEST_PARAMETERS: single experiment or average of multiple experiments; read-out: Biochemical IC50 PRMT6
pIC50: −log10 of the molar value.
MEASURE_NAME: pIC50

[1] CNCCN(C)Cc1c[nH]nc1C1CCC2(CC1)CCC(F)(F)CC2 [Compound 130]
[2] CNCCN(C)Cc1c[nH]nc1C1CCC(C)(C)[C@@H](C(=O)NCCC(C)C)C1 (stereo partly drawn) [Compound 263]
Q: Param pair: 1 , 2 . Output: the one whose pIC50 is numerically greater. Response format: the label of the selected entry.
Ans: 1

----------
- TEST_TARGET: full-length human PRMT8 isoform 1 (Homo sapiens, UniProt Q9NR22)
- Sequence (Q9NR22 whole entry, canonical isoform): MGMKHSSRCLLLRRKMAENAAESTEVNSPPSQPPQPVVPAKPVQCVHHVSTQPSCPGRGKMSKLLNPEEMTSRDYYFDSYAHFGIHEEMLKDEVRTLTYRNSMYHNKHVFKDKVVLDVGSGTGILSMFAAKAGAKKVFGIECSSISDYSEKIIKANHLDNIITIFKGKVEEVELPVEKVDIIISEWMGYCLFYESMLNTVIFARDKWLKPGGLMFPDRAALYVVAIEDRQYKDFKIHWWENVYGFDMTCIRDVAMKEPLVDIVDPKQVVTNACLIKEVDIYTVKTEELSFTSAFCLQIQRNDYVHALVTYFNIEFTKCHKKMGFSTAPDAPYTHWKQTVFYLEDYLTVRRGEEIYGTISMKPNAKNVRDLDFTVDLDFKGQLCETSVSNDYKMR
- PROTOCOL_DESCRIPTION: PRMT8 Biochemical Assay (3H-SAM Flashplate, peptide substrate)
- TEST_PARAMETERS: single experiment or average of multiple experiments; read-out: Biochemical IC50 PRMT8
MEASURE_NAME: IC50 (nM)

[1] CNCCN(C)Cc1c[nH]nc1[C@H]1CC[C@H](N(CC(C)C)C(=O)CCOC)CC1
[2] CN(CCN)Cc1c[nH]nc1[C@H]1CC[C@]2(CC1)CC(C)(C)CO2
[3] CNCCN(C)Cc1c[nH]nc1C1CCC(OCCOC)CC1 (stereo not drawn)
[4] CNCCN(C)Cc1c[nH]nc1C1CCC2(CCCO2)CC1 (stereo not drawn)
Q: Put the items in sequence by IC50, from largest down. Answer by naming the labels in the order asked.
Ans: 3, 1, 4, 2

[a] CNCCN(C)Cc1c[nH]nc1[C@H]1CC[C@]2(CCN(CC(C)C)C2=O)CC1
[b] CNCCN(C)Cc1c[nH]nc1C1CCC2(CCCCO2)CC1 (stereo not drawn)
Q: For this pair, a and b , which shows a numerically higher IC50? Lab log: write the label of the selected item as the result.
Ans: b

[1] CNCCN(C)Cc1c[nH]nc1C1CCC(C)(C)CC1
[2] CNCCN(C)Cc1c[nH]nc1[C@H]1CC[C@@H](COC)CC1
Q: Between 1 and 2 , whose measured IC50 reads higher? Which one? Tell me its label.
Ans: 2
(2: 23 nM, 1: 10.4 nM)

----------
- TEST_TARGET: full-length human PRMT6 (Flag- and His-tagged) (Homo sapiens, UniProt Q96LA8)
- PROTOCOL_DESCRIPTION: PRMT6 Biochemical Assay (3H-SAM Flashplate, peptide substrate)
- TEST_PARAMETERS: read-out: Biochemical IC50 PRMT6
pIC50: −log10 of the molar value.
MEASURE_NAME: pIC50

Some entries whose results are on file:
COMPOUND | pIC50
CNCCN(C)Cc1c[nH]nc1C1CCC2(CC1)CCN(C)C2=O (centres unmarked) | > 7.00
CNCCN(C)Cc1c[nH]nc1C1CCC2(CC1)CCN(CC(C)C)C2=O (centres unmarked) | > 7.00
CCCOC1CC(OCCC)CC(c2n[nH]cc2CN(C)CCNC)C1 (centres unmarked) | < 5.00
CNCCN(C)Cc1c[nH]nc1[C@H]1CC[C@H](COC)CC1 | > 7.00

Q: Using known records, supply pIC50 for CNCCN(C)Cc1c[nH]nc1[C@H]1CC[C@H](N(CCOC)C(=O)CCOc2ccccc2)CC1
Ans: > 7.00

Q: Determine from records and report pIC50 for CNCCN(C)Cc1c[nH]nc1[C@H]1CC[C@H](C(=O)NCCOc2ccccc2)CC1
Ans: > 7.00

Q: Give recorded pIC50. CNCCN(C)Cc1c[nH]nc1C1CC(COC)CC(COC)C1 (centres unmarked)
Ans: 5.52 to 6.00

Q: Return pIC50 for the following compound: CNCCN(C)Cc1c[nH]nc1C1CCC2(CC1)CCC(F)(F)CC2
Ans: > 7.00

Q: Provide measured pIC50 value, entry: CNCCN(C)Cc1c[nH]nc1C1CCC2(CCCC2)OC1 (centres unmarked)
Ans: > 7.00

----------
- TEST_TARGET: full-length human PRMT1 isoform 1 (GST-tagged) (Homo sapiens)
- Sequence (Q99873 with tags, fused parts or gaps): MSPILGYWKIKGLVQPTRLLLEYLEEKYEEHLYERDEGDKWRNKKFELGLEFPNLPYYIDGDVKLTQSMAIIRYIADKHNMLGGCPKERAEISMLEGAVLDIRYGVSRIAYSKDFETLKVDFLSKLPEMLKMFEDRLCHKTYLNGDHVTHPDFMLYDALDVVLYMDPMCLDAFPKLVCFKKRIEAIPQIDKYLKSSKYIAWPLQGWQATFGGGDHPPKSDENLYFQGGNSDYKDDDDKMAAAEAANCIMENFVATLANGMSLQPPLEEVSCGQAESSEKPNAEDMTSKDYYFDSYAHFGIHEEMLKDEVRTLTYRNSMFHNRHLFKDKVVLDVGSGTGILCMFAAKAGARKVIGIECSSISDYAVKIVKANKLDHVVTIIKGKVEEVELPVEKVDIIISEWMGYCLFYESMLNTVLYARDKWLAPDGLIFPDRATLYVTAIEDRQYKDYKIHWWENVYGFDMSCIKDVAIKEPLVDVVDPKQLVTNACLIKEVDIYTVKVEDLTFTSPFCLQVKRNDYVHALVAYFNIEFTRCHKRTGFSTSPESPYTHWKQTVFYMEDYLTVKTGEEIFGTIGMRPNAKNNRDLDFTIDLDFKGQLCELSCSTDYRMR
- PROTOCOL_DESCRIPTION: PRMT1 Biochemical Assay (3H-SAM Flashplate, peptide substrate)
- TEST_PARAMETERS: single experiment or average of multiple experiments
MEASURE_NAME: IC50 (nM)

COMPOUND | UNIT_SPEC | QUANTITATIVE_RESULT
CNCCN(C)Cc1c[nH]nc1[C@H]1CC[C@H](N(CCOc2ccccc2)C(=O)CC(C)C)CC1 | nM | 6.65
CCC(=O)N(CCOc1ccccc1)[C@H]1CC[C@@H](c2n[nH]cc2CN(C)CCNC)CC1 | nM | 9.29
CNCCN(C)Cc1c[nH]nc1[C@H]1CC[C@H](OCCOc2ccccc2)CC1 | nM | 193

[1] CN(CCN)Cc1c[nH]nc1C1CCCC1
[2] CNCCN(C)Cc1c[nH]nc1C1CCC(C(C)C)CC1 (stereo not shown)
Q: Which item exceeds the other in IC50, 1 or 2 ? Which one? Tell me its label.
Ans: 1
(1: 110 nM, 2: 8.6 nM)
